measurement_notes: Pharmacokinetic study of jervine in mice
Assay type: in vivo
applied_conditions: male, mouse; PO 10 mg/Kg, CD-1 mice, plasma
reported_metric: AUC(0-inf) (ng·h/mL)
Give the quantity in ng·h/mL, number only.

Which AUC(0-inf) value is on record for `CC1=C2C(=O)[C@H]3[C@@H](CC=C4C[C@@H](O)CC[C@@]43C)[C@@H]2CC[C@]12O[C@@H]1C[C@H](C)CN[C@H]1[C@H]2C` ?
2260

====

measurement_notes: Pharmacokinetic study of jervine in mice
Type: in vivo
applied_conditions: male, CD-1, mouse, plasma, po, 10 mg/kg, CD-1 mice, read-out: F (bioavailability)
reported_metric: bioavailability (%)
Numbers only; they are read as %.

I would be grateful if you could share the reported bioavailability for `CC1=C2C(=O)[C@H]3[C@@H](CC=C4C[C@@H](O)CC[C@@]43C)[C@@H]2CC[C@]12O[C@@H]1C[C@H](C)CN[C@H]1[C@H]2C` .
41

====

measurement_notes: Pharmacokinetic study of jervine in mice
Assay type: in vivo
applied_conditions: male, mouse; PO 10 mg/Kg, CD-1 mice, plasma; read-out: T½ (converted)
Description: Orally dosed: A total of 3 male experimental CD-1 mice, approximately 8 weeks of age at receipt was administered jervine via oral gavage at 10 mg/kg. Blood samples (300 μL) were collected via cardiac puncture predose and at 2 minute, 5 minute, 15 minute, 0.5 hour, 1 hour, 2 hour, 4 hour, 8 hour, 24 hours postdose. Plasma was made form the blood samples in order to measure the concentration of jervine.
reported_metric: half-life (h)
Please respond with the number in h and leave the unit unwritten.

Fill in the blank: the reported half-life of `CC1=C2C(=O)[C@H]3[C@@H](CC=C4C[C@@H](O)CC[C@@]43C)[C@@H]2CC[C@]12O[C@@H]1C[C@H](C)CN[C@H]1[C@H]2C` is ____.
11.8

The origin of these recorded values is patent US20150259313A1.
